Where these numbers come from: patent US7091199B1

- TESTED_SYSTEM: human D4 receptor (D4.2 sub-type) (Homo sapiens, UniProt P21917, DEL271-302)
- Sequence (P21917 with tags, fused parts or gaps DEL271-302): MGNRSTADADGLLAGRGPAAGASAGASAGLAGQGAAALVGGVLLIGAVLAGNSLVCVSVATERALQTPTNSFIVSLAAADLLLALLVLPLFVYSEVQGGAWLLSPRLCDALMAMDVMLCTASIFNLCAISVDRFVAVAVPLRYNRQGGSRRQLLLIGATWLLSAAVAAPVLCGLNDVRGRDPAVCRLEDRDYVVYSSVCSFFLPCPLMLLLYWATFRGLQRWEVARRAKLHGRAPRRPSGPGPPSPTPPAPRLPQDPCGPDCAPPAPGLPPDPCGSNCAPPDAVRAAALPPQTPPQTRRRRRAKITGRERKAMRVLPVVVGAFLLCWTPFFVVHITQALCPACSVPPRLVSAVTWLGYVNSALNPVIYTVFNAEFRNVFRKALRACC
- ASSAY_METHOD_TEXT: D4 receptor binding assay (3H-spiperone displacement)
- CONDITIONS: 3H-spiperone 0.25 nM, HEK cell membranes, human D4.2; read-out: D4 RBA Ki
pKi: −log10 of the molar value. Where a name gives a salt, the structure may show the parent alone.
READOUT: pKi

// worked examples, pKi included
MOLECULE	VALUE_OBSERVED
Clc1ccc(CNCCCOc2cccc(-c3noc4ccsc34)c2)cc1 [Compound 4]	7.35
c1ccc(CNCCOc2cccc(-c3noc4ccsc34)c2)cc1 [Compound 16]	8.12
c1cncc(CNCCCOc2cccc(-c3noc4ccsc34)c2)c1 [Compound 8]	7.12
COc1cccc(CNCCCOc2cccc(-c3noc4ccsc34)c2)c1 [Compound 41]	7.36
c1cc(OCCNC23CC4CC(CC(C4)C2)C3)cc(-c2noc3ccsc23)c1 [Compound 47]	7.64

a: c1cnc(N2CCN(CCCOc3cccc(-c4noc5ccsc45)c3)CC2)nc1 [Compound 13]
b: c1cc(OCCCNCc2ccsc2)cc(-c2noc3ccsc23)c1 [Compound 7]
// query Which of the two items, a and b , has the greater recorded pKi? // respond with label for picked entry
// result b
(b: 7.74, a: 7.26)

A: Fc1ccc(CNCCCOc2cccc(-c3noc4ccsc34)c2)cc1F [Compound 42]
B: c1cc(OCCCNCc2cccs2)cc(-c2noc3ccsc23)c1 [Compound 6]
// query Which of the two items, A and B , has the greater recorded pKi? // respond with label for picked entry
// result B

P: COc1ccc(CNCCCOc2cccc(-c3noc4ccsc34)c2)cc1 [Compound 5]
Q: Fc1cccc(CNCCOc2cccc(-c3noc4ccsc34)c2)c1.O=C(O)/C=C\C(=O)O [Compound 32, maleate]
R: c1cc(OCCNC2Cc3ccccc3C2)cc(-c2noc3ccsc23)c1 [Compound 46, hydrochloride]
// query Rank entries according to their pKi, from the largest number down. State the ranking by listing the labels in the requested order.
// result Q, R, P
(Q: 7.98, R: 7.44, P: 7.04)

1: Fc1cccc(CNCCOc2cccc(-c3noc4ccsc34)c2)c1 [Compound 19]
2: Fc1ccc(CNCCOc2cccc(-c3noc4ccsc34)c2)cc1F [Compound 37]
// query Which of the two items, 1 and 2 , has the greater recorded pKi? // respond with label for picked entry
// result 1
(1: 7.82, 2: 7.49)

====

- System: CD-1 or C57 male mice (MK-801 induced stereotypy)
- ASSAY_METHOD_TEXT: MK-801 Stereotypy in Mice
- Format: in vivo
- CONDITIONS: Mus musculus, po, 20 mg/kg, read-out: Antag. of MK 801 Stereotypy % Inhib. @ 20 mg/kg
- Method: Mk-801 dose-dependently induces characteristic stereotypy marked by locomotion and falling behavior. This MK-801 induced behavior can be antagonized by novel neuroleptic agents. This assay can also assess time course effects following drug administration. CD-1 or C57 male mice are individually placed in activity boxes (8 mice/drug) and allowed to acclimate for 60 minutes. […]
Where a name gives a salt, the structure may show the parent alone.
READOUT: inhibition in vivo at 20 mg/kg (%)
Provide only the numeric value, understood in %.

// worked examples, inhibition in vivo at 20 mg/kg included
COMPOUND	inhibition in vivo at 20 mg/kg / %
Fc1cccc(CNCCOc2cccc(-c3noc4ccsc34)c2)c1	75
Fc1ccc(CNCCCOc2cccc(-c3noc4ccsc34)c2)cc1	37.5
c1ccc(CNCCOc2cccc(-c3noc4ccsc34)c2)cc1 [Compound 31, hydrochloride]	37.5

Form: item "Cc1ccc(CNCCOc2cccc(-c3noc4ccsc34)c2)cc1" ; test system CD-1 or C57 male mice (MK-801 induced stereotypy); inhibition in vivo at 20 mg/kg: 37.5

Form: item "Fc1ccc(CNCCOc2cccc(-c3noc4ccsc34)c2)cc1" ; test system CD-1 or C57 male mice (MK-801 induced stereotypy); inhibition in vivo at 20 mg/kg: 62.5

Form: item "c1cc(OCCCNCc2ccsc2)cc(-c2noc3ccsc23)c1" ; test system CD-1 or C57 male mice (MK-801 induced stereotypy); inhibition in vivo at 20 mg/kg: 75

Form: item "Clc1ccc(CNCCOc2cccc(-c3noc4ccsc34)c2)cc1" ; test system CD-1 or C57 male mice (MK-801 induced stereotypy); inhibition in vivo at 20 mg/kg: 37.5
